Biological target: UGT1A1 (Homo sapiens (Human), UniProt P22309)
Sequence (P22309 26-533): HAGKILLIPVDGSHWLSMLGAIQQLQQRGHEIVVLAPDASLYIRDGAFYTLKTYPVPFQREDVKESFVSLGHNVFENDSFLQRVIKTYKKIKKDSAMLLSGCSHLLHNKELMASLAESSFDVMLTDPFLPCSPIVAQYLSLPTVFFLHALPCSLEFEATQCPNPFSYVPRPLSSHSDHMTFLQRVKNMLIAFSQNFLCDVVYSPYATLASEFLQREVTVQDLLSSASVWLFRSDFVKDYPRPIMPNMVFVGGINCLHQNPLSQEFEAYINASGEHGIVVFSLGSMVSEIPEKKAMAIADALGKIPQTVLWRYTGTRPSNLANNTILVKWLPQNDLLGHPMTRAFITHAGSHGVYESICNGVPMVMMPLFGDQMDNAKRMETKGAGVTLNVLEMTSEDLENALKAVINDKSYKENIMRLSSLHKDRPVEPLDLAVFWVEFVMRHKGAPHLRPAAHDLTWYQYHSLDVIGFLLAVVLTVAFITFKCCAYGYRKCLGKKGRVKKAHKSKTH
Assay: UGT1A1 inhibition assay with human UGT1A1-expressed Supersomes
Assay type: in vitro ADME
Conditions: human UGT1A1 Supersomes, probe substrate estradiol (10 μM), 30 min at 37° C.; read-out: IC50
Experimental: KCI838 was incubated at seven increasing concentrations with human UGT1A1-expressed Supersomes™ (0.25 mg/mL), alamethicin (25 μg/mL) and UDPGA (5 mM) in the presence of the probe substrate estradiol (10 μM) for 30 min at 37° C. The UGT1A1 inhibitor, atazanavir, was screened alongside the test compounds as a positive control. The reactions were terminated by quenching with one volume of methanol containing an analytical internal standard. […]
measurement name: IC50 (nM)
Just the number please, in nM, no unit attached.

Record request: IC50 value, item COC(=O)N[C@H](C(=O)N[C@@H](Cc1ccccc1)[C@@H](O)CN(Cc1ccc(-c2ccccn2)cc1)NC(=O)[C@@H](NC(=O)OC)C(C)(C)C)C(C)(C)C [atazanavir, reference compound] 792

* * *

Test system: 22Rv1-Lenti vector cells
Experiment: Colony formation in control 22Rv1 cells transduced with lentiviral vector alone
Format: cell-based
Details: Homo sapiens; control 22Rv1 cells (vector), with DHT; read-out: IC50 for inhibition of colony formation
Protocol: 22Rv1 cells were plated in triplicate at a density of 2000 cells/well in 6-well plates in 48-hour conditioned medium (phenol-red free RPMI1640 10% FBS, 1% penicillin/streptomycin, 1% L-glutamine) obtained from monolayer cultures of the same cells, as previously described. 48 h after plating, the cells were treated with various concentrations of the test compounds in the same media. […] The colonies were then stained with crystal violet and counted. […]
measurement name: pIC50
// pIC50 is dimensionless: -log10 of concentration (M)

Record request: pIC50 value, item O=c1cc(-c2cccc(O)c2)n(CC(F)(F)F)c2cccc(O)c12 [KCI838] 7.17

The origin of these recorded values is patent US11938127B2.
